# Target: IP6K1 (Homo sapiens (Human), UniProt Q92551)
# Sequence (Q92551 whole entry): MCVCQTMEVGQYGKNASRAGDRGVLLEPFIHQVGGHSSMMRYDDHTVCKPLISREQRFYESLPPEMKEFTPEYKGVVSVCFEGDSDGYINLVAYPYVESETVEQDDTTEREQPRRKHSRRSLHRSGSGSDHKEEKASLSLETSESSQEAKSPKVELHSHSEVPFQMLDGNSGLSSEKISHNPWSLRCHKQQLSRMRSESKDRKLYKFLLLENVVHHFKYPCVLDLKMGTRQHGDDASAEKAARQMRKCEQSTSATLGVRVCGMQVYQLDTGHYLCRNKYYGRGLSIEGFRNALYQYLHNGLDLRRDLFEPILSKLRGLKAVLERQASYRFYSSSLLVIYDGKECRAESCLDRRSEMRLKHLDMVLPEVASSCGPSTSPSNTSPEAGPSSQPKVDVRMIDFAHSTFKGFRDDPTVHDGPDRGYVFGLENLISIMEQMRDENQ
# Protocol Text: Enzyme-coupled assay of IP6K1 activity (Dipp1-coupled, malachite green Pi release)
# Assay type: biochemical
# Experimental Context: enzyme-coupled assay; Table 4
pIC50: −log10 of the molar value.
Please provide measured pIC50 for the entries that follow.

INPUT: I have this compound here, `O=C1CC(C(=O)N2CCC(c3cccc(-c4onc5ccc(-c6nnn[nH]6)cc45)c3)CC2)C1` , and I need its recorded pIC50.
OUTPUT: 7.00 to 8.00

INPUT: I have this compound here, `O=C(C1CC1)N1CCC(c2ccc(-c3onc4ccc(-c5nnn[nH]5)cc34)cc2)CC1` , and I need its recorded pIC50.
OUTPUT: 6.00 to 7.00

INPUT: I have this compound here, `Clc1ccc(-c2cccc(-c3onc4ccc(-c5nnn[nH]5)cc34)c2)c(Cl)c1` , and I need its recorded pIC50.
OUTPUT: 7.00 to 8.00

INPUT: I have this compound here, `c1cc(-c2onc3ccc(-c4nnn[nH]4)cc23)cc(C2CCN(C3CCCC3)CC2)c1` , and I need its recorded pIC50.
OUTPUT: 6.00 to 7.00

INPUT: I have this compound here, `c1cc2noc(-c3ccc(C4CCNCC4)cc3)c2cc1-c1nnn[nH]1` , and I need its recorded pIC50.
OUTPUT: 6.00 to 7.00

INPUT: I have this compound here, `CC(C)N1CCC(Oc2cccc(-c3onc4ccc(-c5nnn[nH]5)cc34)c2)CC1` , and I need its recorded pIC50.
OUTPUT: 7.00 to 8.00

INPUT: I have this compound here, `Clc1ccc(-c2onc3ccc(-c4nnn[nH]4)cc23)cc1Cl` , and I need its recorded pIC50.
OUTPUT: 7.00 to 8.00

INPUT: I have this compound here, `CN1CCC(Oc2cccc(-c3onc4ccc(-c5nnn[nH]5)cc34)c2)CC1` , and I need its recorded pIC50.
OUTPUT: 7.00 to 8.00

INPUT: I have this compound here, `CC(=O)N1CCC(Oc2cccc(-c3onc4ccc(-c5nnn[nH]5)cc34)c2)CC1` , and I need its recorded pIC50.
OUTPUT: > 8.00

INPUT: I have this compound here, `CC(C)C(=O)N1CCC(c2cccc(-c3onc4ccc(-c5nnn[nH]5)cc34)c2)CC1` , and I need its recorded pIC50.
OUTPUT: 7.00 to 8.00

INPUT: I have this compound here, `CC(C)C(=O)N1CCC(Oc2cccc(-c3onc4ccc(-c5nnn[nH]5)cc34)c2)CC1` , and I need its recorded pIC50.
OUTPUT: 7.00 to 8.00

INPUT: I have this compound here, `COc1ccccc1-c1onc2ccc(-c3nnn[nH]3)cc12` , and I need its recorded pIC50.
OUTPUT: 7.00 to 8.00

INPUT: I have this compound here, `O=C(N1CCC(c2cccc(-c3onc4ccc(-c5nnn[nH]5)cc34)c2)CC1)C1(F)CC1` , and I need its recorded pIC50.
OUTPUT: 7.00 to 8.00

INPUT: I have this compound here, `c1cc(-c2onc3ccc(-c4nnn[nH]4)cc23)cc(C2CCN(C3CC4(CCC4)C3)CC2)c1` , and I need its recorded pIC50.
OUTPUT: 6.00 to 7.00

INPUT: I have this compound here, `O=C(C1CC1)N1CCC(Oc2cccc(-c3onc4ccc(-c5nnn[nH]5)cc34)c2)CC1` , and I need its recorded pIC50.
OUTPUT: 7.00 to 8.00

INPUT: I have this compound here, `CC1(C(=O)N2CCC(c3cccc(-c4onc5ccc(-c6nnn[nH]6)cc45)c3)CC2)COC1` , and I need its recorded pIC50.
OUTPUT: 6.00 to 7.00

###

# Target: IP6K3 (Homo sapiens (Human))
# Sequence (Q96PC2 whole entry): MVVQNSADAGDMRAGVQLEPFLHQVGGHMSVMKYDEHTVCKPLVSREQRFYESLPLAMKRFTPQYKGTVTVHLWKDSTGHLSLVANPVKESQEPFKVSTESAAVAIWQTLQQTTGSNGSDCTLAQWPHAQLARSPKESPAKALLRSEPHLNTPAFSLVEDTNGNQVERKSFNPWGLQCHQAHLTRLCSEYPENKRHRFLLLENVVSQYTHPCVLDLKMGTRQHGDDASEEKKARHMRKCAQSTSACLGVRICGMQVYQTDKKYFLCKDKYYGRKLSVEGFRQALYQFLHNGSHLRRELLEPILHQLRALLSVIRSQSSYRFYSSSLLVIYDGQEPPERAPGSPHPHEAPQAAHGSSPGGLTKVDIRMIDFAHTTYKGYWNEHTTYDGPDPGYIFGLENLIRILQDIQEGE
# Protocol Text: Enzyme-coupled assay of IP6K3 activity (Dipp1-coupled, malachite green Pi release)
# Type: biochemical
# Experimental Context: enzyme-coupled assay; Table 1
pIC50: −log10 of the molar value.
Measured Parameter: pIC50

INPUT: I have this compound here, `Cc1cc(C)cc(-c2onc3ccc(/C=C/C(=O)O)cc23)c1` , and I need its recorded pIC50.
OUTPUT: 6.00 to 7.00

INPUT: I have this compound here, `O=C(O)/C=C/c1ccc2noc(-c3ccc(Oc4ccccc4)cc3)c2c1` , and I need its recorded pIC50.
OUTPUT: 6.00 to 7.00

INPUT: I have this compound here, `O=C(O)/C=C/c1ccc2noc(-c3ccc(OC(F)(F)F)cc3)c2c1` , and I need its recorded pIC50.
OUTPUT: 4.00 to 6.00

INPUT: I have this compound here, `O=C(O)/C=C/c1ccc2noc(-c3ccccc3)c2c1` , and I need its recorded pIC50.
OUTPUT: 4.00 to 6.00

INPUT: I have this compound here, `Cc1cc(C)cc(-c2onc3ccc([C@@H]4C[C@H]4C(=O)O)cc23)c1` , and I need its recorded pIC50.
OUTPUT: 4.00 to 6.00

INPUT: I have this compound here, `O=C(O)/C=C/c1ccc2noc(-c3ccc(-c4ccccc4)cc3)c2c1` , and I need its recorded pIC50.
OUTPUT: 6.00 to 7.00

###

Please provide measured pIC50 for the entries that follow.
# Target: IP6K2 (Homo sapiens (Human), UniProt Q9UHH9)
# Sequence (Q9UHH9 whole entry): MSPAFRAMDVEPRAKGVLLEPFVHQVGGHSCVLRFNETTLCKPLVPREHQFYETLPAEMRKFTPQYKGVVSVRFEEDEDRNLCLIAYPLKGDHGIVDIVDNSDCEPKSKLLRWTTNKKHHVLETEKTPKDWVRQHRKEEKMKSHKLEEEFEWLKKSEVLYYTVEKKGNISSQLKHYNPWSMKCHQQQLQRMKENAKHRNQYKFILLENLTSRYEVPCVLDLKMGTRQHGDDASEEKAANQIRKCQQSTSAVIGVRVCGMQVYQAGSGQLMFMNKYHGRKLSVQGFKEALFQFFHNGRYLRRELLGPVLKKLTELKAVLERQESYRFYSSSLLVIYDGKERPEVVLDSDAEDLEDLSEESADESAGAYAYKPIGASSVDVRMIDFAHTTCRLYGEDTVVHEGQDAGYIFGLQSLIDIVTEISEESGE
# Protocol Text: Enzyme-coupled assay of IP6K2 activity (Dipp1-coupled, malachite green Pi release)
# Type: biochemical
# Experimental Context: determined from enzyme-coupled assays
pIC50: −log10 of the molar value.

INPUT: Give IP6K2 (Homo sapiens (Human), UniProt Q9UHH9) pIC50 for `O=c1[nH]c(-c2ccc3noc(-c4cccc(OC5CCN(C6CCC6)CC5)c4)c3c2)no1`
OUTPUT: 6.00 to 7.00

INPUT: Give IP6K2 (Homo sapiens (Human), UniProt Q9UHH9) pIC50 for `O=c1[nH]c(-c2ccc3noc(-c4ccccc4)c3c2)no1`
OUTPUT: 6.00 to 7.00

INPUT: Give IP6K2 (Homo sapiens (Human), UniProt Q9UHH9) pIC50 for `CC1(C(=O)N2CCC(Oc3cccc(-c4onc5ccc(-c6noc(=O)[nH]6)cc45)c3)CC2)COC1`
OUTPUT: 7.00 to 8.00

INPUT: Give IP6K2 (Homo sapiens (Human), UniProt Q9UHH9) pIC50 for `O=C(Nc1ccc(-c2onc3ccc(-c4noc(=O)[nH]4)cc23)cc1)C1CC1`
OUTPUT: 6.00 to 7.00

INPUT: Give IP6K2 (Homo sapiens (Human), UniProt Q9UHH9) pIC50 for `O=c1[nH]c(-c2ccc3noc(-c4ccc(-c5ccccc5)cc4)c3c2)no1`
OUTPUT: 7.00 to 8.00

INPUT: Give IP6K2 (Homo sapiens (Human), UniProt Q9UHH9) pIC50 for `O=c1[nH]c(-c2ccc3noc(-c4cccc(OC5CCN(C6COC6)CC5)c4)c3c2)no1`
OUTPUT: 6.00 to 7.00

INPUT: Give IP6K2 (Homo sapiens (Human), UniProt Q9UHH9) pIC50 for `O=C(Nc1ccc(-c2onc3ccc(-c4noc(=O)[nH]4)cc23)cc1)[C@@H]1CCCN1`
OUTPUT: 6.00 to 7.00

INPUT: Give IP6K2 (Homo sapiens (Human), UniProt Q9UHH9) pIC50 for `O=c1[nH]c(-c2ccc3noc(-c4cccc(OC5CCN(CC6CC6)CC5)c4)c3c2)no1`
OUTPUT: 6.00 to 7.00

INPUT: Give IP6K2 (Homo sapiens (Human), UniProt Q9UHH9) pIC50 for `O=c1[nH]c(-c2ccc3noc(-c4cccc(OC5CCNCC5)c4)c3c2)no1`
OUTPUT: 7.00 to 8.00

INPUT: Give IP6K2 (Homo sapiens (Human), UniProt Q9UHH9) pIC50 for `CN1CCC(Oc2cccc(-c3onc4ccc(-c5noc(=O)[nH]5)cc34)c2)CC1`
OUTPUT: 6.00 to 7.00

INPUT: Give IP6K2 (Homo sapiens (Human), UniProt Q9UHH9) pIC50 for `O=C(Nc1ccc(-c2onc3ccc(-c4noc(=O)[nH]4)cc23)cc1)C1CNC1`
OUTPUT: 4.00 to 6.00

INPUT: Give IP6K2 (Homo sapiens (Human), UniProt Q9UHH9) pIC50 for `O=C(Nc1ccc(-c2onc3ccc(-c4noc(=O)[nH]4)cc23)cc1)C1CCCC1`
OUTPUT: > 8.00

INPUT: Give IP6K2 (Homo sapiens (Human), UniProt Q9UHH9) pIC50 for `CC(C)(C)OC(=O)N1CCC(Oc2cccc(-c3onc4ccc(-c5noc(=O)[nH]5)cc34)c2)CC1`
OUTPUT: 7.00 to 8.00

INPUT: Give IP6K2 (Homo sapiens (Human), UniProt Q9UHH9) pIC50 for `O=C(C1CC1)N1CCC(Oc2cccc(-c3onc4ccc(-c5noc(=O)[nH]5)cc34)c2)CC1`
OUTPUT: 7.00 to 8.00

INPUT: Give IP6K2 (Homo sapiens (Human), UniProt Q9UHH9) pIC50 for `O=c1[nH]c(-c2ccc3noc(-c4cccc(OC5CCN(CCO)CC5)c4)c3c2)no1`
OUTPUT: 6.00 to 7.00

INPUT: Give IP6K2 (Homo sapiens (Human), UniProt Q9UHH9) pIC50 for `O=c1[nH]c(-c2ccc3noc(-c4cccc(Oc5ncc(Cl)cc5Cl)c4)c3c2)no1`
OUTPUT: 7.00 to 8.00
